Provide the reported RLU of each item.
# system.name: mouse Tas2r105 (Mus musculus)
# Construct: expressed in transfected cells; host or cells: HEK293T-Gα16gust44
# test.protocol: Calcium imaging assay (FLIPR), HEK293T-Gα16gust44 cells transfected with mouse Tas2r105
# Assay type: cell-based
# test.settings: Time 4 s
Numbers only, in RLU.

- record.smiles: "C[C@H](CCC(=O)O)[C@H]1CC[C@H]2[C@@H]3CC[C@@H]4C[C@H](O)CC[C@]4(C)[C@H]3CC[C@]12C"
  unit.annotation: "RLU"
  RLU: 19.2865
- record.smiles: "C[C@H](CCC(=O)NCC(=O)O)[C@H]1CC[C@H]2[C@@H]3[C@H](O)C[C@@H]4C[C@H](O)CC[C@]4(C)[C@H]3C[C@H](O)[C@]12C"
  unit.annotation: "RLU"
  RLU: -18.6603
- record.smiles: "C[C@H](CCC(=O)O)[C@H]1CC[C@H]2[C@@H]3[C@H](O)C[C@@H]4C[C@H](O)CC[C@]4(C)[C@H]3C[C@H](O)[C@]12C"
  unit.annotation: "RLU"
  RLU: 7.834

Attention now shifts to the item below.
Please look at this molecule and report its RLU: C[C@H](CCC(=O)O)[C@H]1CC[C@H]2[C@@H]3CC[C@@H]4C[C@H](O)CC[C@]4(C)[C@H]3C[C@H](O)[C@]12C 8.425

====

Provide the reported Activation threshold concentration Tas2r105 of each item.
# system.name: mouse Tas2r105 (Mus musculus)
# Construct: expressed in transfected cells; host or cells: HEK293T-Gα16gust44
# Sequence (Q9JKT4 1-300): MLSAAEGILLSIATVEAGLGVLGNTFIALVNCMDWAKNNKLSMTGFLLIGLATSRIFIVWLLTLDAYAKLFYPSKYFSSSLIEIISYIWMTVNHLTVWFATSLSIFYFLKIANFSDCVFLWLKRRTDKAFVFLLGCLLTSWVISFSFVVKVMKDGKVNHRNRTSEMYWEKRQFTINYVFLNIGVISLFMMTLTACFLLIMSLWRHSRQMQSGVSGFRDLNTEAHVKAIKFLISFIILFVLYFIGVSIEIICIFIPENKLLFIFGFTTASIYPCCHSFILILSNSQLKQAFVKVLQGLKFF
# test.protocol: Calcium imaging assay (FLIPR), HEK293T-Gα16gust44 cells transfected with mouse Tas2r105
# Assay type: cell-based
# test.settings: p < 0.01 vs empty vector
Answers are plain numbers, in µM.

Please give Activation threshold concentration Tas2r105 for each item listed below.
1. C[C@H](CCC(=O)O)[C@H]1CC[C@H]2[C@@H]3CC[C@@H]4C[C@H](O)CC[C@]4(C)[C@H]3C[C@H](O)[C@]12C [Deoxycholic Acid, deoxycholic acid]
2. C[C@H](CCC(=O)NCC(=O)O)[C@H]1CC[C@H]2[C@@H]3[C@H](O)C[C@@H]4C[C@H](O)CC[C@]4(C)[C@H]3C[C@H](O)[C@]12C [Glycocholic Acid, glycocholic acid]
3. C[C@H](CCC(=O)O)[C@H]1CC[C@H]2[C@@H]3CC[C@@H]4C[C@H](O)CC[C@]4(C)[C@H]3CC[C@]12C [Lithocholic Acid, lithocholic acid]
4. C[C@H](CCC(=O)O)[C@H]1CC[C@H]2[C@@H]3[C@H](O)C[C@@H]4C[C@H](O)CC[C@]4(C)[C@H]3C[C@H](O)[C@]12C [Cholic Acid, cholic acid]

1: 10; 2: 300; 3: 3; 4: 300

====

# system.name: mouse Tas2r105 (Mus musculus, UniProt Q9JKT4)
# Construct: expressed in transfected cells; host or cells: HEK293T-Gα16gust44
# test.protocol: Calcium imaging assay (FLIPR), HEK293T-Gα16gust44 cells transfected with mouse Tas2r105
# Type: cell-based
# test.settings: Time 98.781 s
Provide the reported RLU of each item.
For clarity, give the value followed by its unit.

The cases that follow already have their RLU on record.
- molecule: "C[C@H](CCC(=O)NCC(=O)O)[C@H]1CC[C@H]2[C@@H]3[C@H](O)C[C@@H]4C[C@H](O)CC[C@]4(C)[C@H]3C[C@H](O)[C@]12C [Glycocholic Acid, glycocholic acid]"
  measured.result: "505.738 RLU"
- molecule: "C[C@H](CCC(=O)O)[C@H]1CC[C@H]2[C@@H]3[C@H](O)C[C@@H]4C[C@H](O)CC[C@]4(C)[C@H]3C[C@H](O)[C@]12C [Cholic Acid, cholic acid]"
  measured.result: "585.897 RLU"
- molecule: "C[C@H](CCC(=O)O)[C@H]1CC[C@H]2[C@@H]3CC[C@@H]4C[C@H](O)CC[C@]4(C)[C@H]3C[C@H](O)[C@]12C [Deoxycholic Acid, deoxycholic acid]"
  measured.result: "103.309 RLU"

Attention now shifts to the item below.
Please look at this molecule and report its RLU: C[C@H](CCC(=O)O)[C@H]1CC[C@H]2[C@@H]3CC[C@@H]4C[C@H](O)CC[C@]4(C)[C@H]3CC[C@]12C [Lithocholic Acid, lithocholic acid] 227.541 RLU

====

# system.name: human TAS2R14 (Homo sapiens, UniProt Q9NYV8)
# Construct: expressed in transfected cells; host or cells: HEK293T-Gα16gust44
# Sequence (Q9NYV8 1-317): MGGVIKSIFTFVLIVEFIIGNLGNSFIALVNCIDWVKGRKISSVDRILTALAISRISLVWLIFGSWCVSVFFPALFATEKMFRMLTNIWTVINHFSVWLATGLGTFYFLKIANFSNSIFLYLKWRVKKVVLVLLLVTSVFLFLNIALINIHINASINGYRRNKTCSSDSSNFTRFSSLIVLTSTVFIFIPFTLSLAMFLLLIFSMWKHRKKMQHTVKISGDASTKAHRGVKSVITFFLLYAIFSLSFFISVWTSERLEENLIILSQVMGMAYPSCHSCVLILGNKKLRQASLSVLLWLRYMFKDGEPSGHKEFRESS
# test.protocol: Calcium imaging assay (FLIPR), HEK293T-Gα16gust44 cells transfected with human TAS2R14
# Type: cell-based
# test.settings: TAS2R14 trace; Time (s) 8 (Taurocholic Acid 8.016)
Provide the reported RLU of each item.
Numbers only, in RLU.

- record.smiles: "C[C@H](CCC(=O)NCCS(=O)(=O)O)[C@H]1CC[C@H]2[C@@H]3[C@H](O)C[C@@H]4C[C@H](O)CC[C@]4(C)[C@H]3C[C@H](O)[C@]12C"
  unit.annotation: "RLU"
  measured.result: -33.6332

Please give RLU for each item listed below.
1. C[C@H](CCC(=O)NCC(=O)O)[C@H]1CC[C@H]2[C@@H]3[C@H](O)C[C@@H]4C[C@H](O)CC[C@]4(C)[C@H]3C[C@H](O)[C@]12C
2. C[C@H](CCC(=O)O)[C@H]1CC[C@H]2[C@@H]3[C@H](O)C[C@@H]4C[C@H](O)CC[C@]4(C)[C@H]3C[C@H](O)[C@]12C
3. C[C@H](CCC(=O)NCCS(=O)(=O)O)[C@H]1CC[C@H]2[C@@H]3CC[C@@H]4C[C@H](O)CC[C@]4(C)[C@H]3CC[C@]12C
4. C[C@H](CCC(=O)O)[C@H]1CC[C@H]2[C@@H]3[C@H](O)C[C@@H]4C[C@H](O)CC[C@]4(C)[C@H]3CC[C@]12C

[-30.0405, -36.4848, -25.9369, -24.697]

====

# system.name: human TAS2R14 (Homo sapiens)
# Construct: expressed in transfected cells; host or cells: HEK293T-Gα16gust44
# Sequence (Q9NYV8 1-317): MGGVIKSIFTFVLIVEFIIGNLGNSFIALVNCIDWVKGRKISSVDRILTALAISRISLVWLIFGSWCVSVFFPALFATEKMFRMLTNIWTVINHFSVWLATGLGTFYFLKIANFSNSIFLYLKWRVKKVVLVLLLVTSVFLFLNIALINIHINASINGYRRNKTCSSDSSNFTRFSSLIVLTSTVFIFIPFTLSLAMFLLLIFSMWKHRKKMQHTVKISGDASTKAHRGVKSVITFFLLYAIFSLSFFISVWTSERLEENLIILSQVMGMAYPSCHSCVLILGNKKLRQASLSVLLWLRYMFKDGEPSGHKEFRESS
# test.protocol: Calcium imaging assay (FLIPR), HEK293T-Gα16gust44 cells transfected with human TAS2R14
# Format: cell-based
# test.settings: TAS2R14 trace; Time (s) 102.797 (Chenodeoxycholic Acid 102.781)
So basically: is RLU under 900 RLU? Then y. Not under? Then n.

- record.smiles: "C[C@H](CCC(=O)NCC(=O)O)[C@H]1CC[C@H]2[C@@H]3[C@H](O)C[C@@H]4C[C@H](O)CC[C@]4(C)[C@H]3C[C@H](O)[C@]12C"
  group.label: "y"
- record.smiles: "C[C@H](CCC(=O)NCCS(=O)(=O)O)[C@H]1CC[C@H]2[C@@H]3CC[C@@H]4C[C@H](O)CC[C@]4(C)[C@H]3CC[C@]12C"
  group.label: "y"
- record.smiles: "C[C@H](CCC(=O)O)[C@H]1CC[C@H]2[C@@H]3[C@H](O)C[C@@H]4C[C@H](O)CC[C@]4(C)[C@H]3C[C@H](O)[C@]12C"
  group.label: "n"

Strictly below 900 RLU: is that where RLU of C[C@H](CCC(=O)O)[C@H]1CC[C@H]2[C@@H]3[C@H](O)C[C@@H]4C[C@H](O)CC[C@]4(C)[C@H]3CC[C@]12C sits? y
